B1: FCHO1 (parent)
chain: DKLALCHLELTRKLQDLIKDVLRY

variants of: B1; assay: protein stability index of a GFP-peptide fusion (GPS, HEK-293T) (PSI 1-6); higher = more stable; conditions: c terminus: a fixed tail appended;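 also: lentivirally expressed fusions sorted by FACS into six bins by GFP to DsRed ratio, PSI derived from sequencing read proportions per bin multiplied by bin number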
Exercise: for every item that follows, state its recorded protein stability index.
Just the number, please.

Report protein stability index for Y24P please.
1.99

Report protein stability index for Q15T please.
2.05

Report protein stability index for I18M please.
2.05
